# experimentalSystem: His-tagged Human KRAS^G12D (Homo sapiens (Human), UniProt P01116, G12D)
# Sequence (P01116-2 other isoform, or with tags, fused parts or gaps G12D): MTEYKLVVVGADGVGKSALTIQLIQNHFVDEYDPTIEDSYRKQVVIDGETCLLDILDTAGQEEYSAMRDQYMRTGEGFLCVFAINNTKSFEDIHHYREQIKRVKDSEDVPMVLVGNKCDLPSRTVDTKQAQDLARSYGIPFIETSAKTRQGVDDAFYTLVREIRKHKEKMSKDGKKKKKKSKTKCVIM
# runDescription: HTRF KRAS G12D GTP binding assay
# protocolConditions: displacement of GTP-Red tracer
outcomeMeasure: IC50

Example entries and their recorded answers appear below.
# compound, experimentalSystem, IC50
rows = [
    ("CCc1c(F)ccc2cc(O)cc(-c3ncc4c(N5CCCC6(CCOC6)C5)nc(OC[C@@]56CCCN5C[C@H](F)C6)nc4c3F)c12 (stereo partly shown) [Compound 64]", "His-tagged Human KRAS^G12D (Homo sapiens (Human), UniProt P01116, G12D)", "> 1000 nM"),
    ("CCc1c(F)ccc2cc(O)cc(-c3ncc4c(N5C6CCC5COC6)nc(OC[C@@]56CCCN5C[C@H](F)C6)nc4c3F)c12 [Compound 12]", "His-tagged Human KRAS^G12D (Homo sapiens (Human), UniProt P01116, G12D)", "> 1000 nM"),
]

Request: Return IC50 (reported value) for this compound: CCc1c(F)ccc2cc(O)cc(-c3ncc4c(N5CC6(CC(=O)C6)C5)nc(OC[C@@]56CCCN5C[C@H](F)C6)nc4c3F)c12 [Compound 44]
Response: > 1000 nM

Request: Return IC50 (reported value) for this compound: CCc1c(F)ccc2cc(O)cc(-c3ncc4c(N5CCC[C@]6(CCO6)C5)nc(OCC5(CN6CCC(F)C6)CC5)nc4c3F)c12 (stereo partly shown) [Compound 41a]
Response: 14.2 nM

Request: Return IC50 (reported value) for this compound: CCc1c(F)ccc2cc(O)cc(-c3ncc4c(N5CCC6(CC5)COC6)nc(OC[C@@]56CCCN5C[C@H](F)C6)nc4c3F)c12 [Compound 53]
Response: > 1000 nM

Request: Return IC50 (reported value) for this compound: CCc1c(F)ccc2cc(O)cc(-c3ncc4c(N5CCC(C)(CO)C5)nc(OC[C@@]56CCCN5C[C@H](F)C6)nc4c3F)c12 (stereo partly shown) [Compound 56]
Response: > 1000 nM

====

# runDescription: Microsomal stability assay, human liver microsomes
# Type: in vitro ADME
# protocolConditions: pooled human liver microsomes, 0.5 mg/mL protein
outcomeMeasure: CLint scaled at 1 μM (mL/min/kg)

# molecule, uom, CLint scaled at 1 μM
measured = [
    ("CCc1c(F)ccc2cc(O)cc(-c3ncc4c(N5CCC[C@]6(CCO6)C5)nc(OCC5(CN6CCC(F)CC6)CC5)nc4c3F)c12 [Compound 29a]", "mL/min/kg", 181),
    ("CCc1c(F)ccc2cc(O)cc(-c3ncc4c(N5CCCC6(CCO6)C5)nc(OCC5(CN(C)C)CC5)nc4c3F)c12 (stereo not drawn) [Compound 73]", "mL/min/kg", 32.4),
    ("CCc1c(F)ccc2cc(O)cc(-c3ccc4c(N5CCC[C@]6(CCO6)C5)nc(OCC5(CN(C)C)CC5)nc4c3F)c12 [Compound 15a]", "mL/min/kg", 31.8),
]

[A] CCc1c(F)ccc2cc(O)cc(-c3ncc4c(N5CCC[C@]6(CCO6)C5)nc(OCC5(CN6CCCC6)CC5)nc4c3F)c12 [Compound 10a]
[B] CCc1c(F)ccc2cc(O)cc(-c3ncc4c(N5CCC[C@]6(CCO6)C5)nc(OC[C@@]56CCCN5C[C@H](F)C6)nc4c3F)c12 [Compound 68]
[C] CCc1c(F)ccc2cc(O)cc(-c3ncc4c(N5CCCC6(CCO6)C5)nc(OCC5(CN6CCOCC6)CC5)nc4c3F)c12 (stereo not drawn) [Compound 2a]
Request: Exam item: list the entries in increasing order of CLint scaled at 1 μM. Kindly provide the labels arranged according to the requested ordering.
Response: A, B, C

====

# runDescription: Microsomal stability assay, mouse liver microsomes
# Format: in vitro ADME
# protocolConditions: CD-1, pooled mouse liver microsomes, 0.5 mg/mL protein
outcomeMeasure: CLint scaled at 1 μM (L/h/kg)

Example entries and their recorded answers appear below.
# molecule, CLint scaled at 1 μM (L/h/kg)
measured = [
    ("CCc1c(F)ccc2cc(O)cc(-c3ncc4c(N5CCC[C@]6(CCO6)C5)nc(OCC5(CN(C)C)CC5)nc4c3F)c12 [Compound 34a]", 15.3),
    ("CCc1c(F)ccc2cc(O)cc(-c3ccc4c(N5CCC[C@]6(CCO6)C5)nc(OCC5(CN(C)C)CC5)nc4c3F)c12 [Compound 15a]", 22.3),
    ("CCc1c(F)ccc2cc(O)cc(-c3ncc4c(N5CCCC(C)(O)C5)nc(OC[C@@]56CCCN5C[C@H](F)C6)nc4c3F)c12 (stereo partly drawn) [Compound A1, reference compound]", 70.9),
    ("CCc1c(F)ccc2cc(O)cc(-c3ncc4c(N5CCC[C@]6(CCO6)C5)nc(OCC5(CN6CCC(F)CC6)CC5)nc4c3F)c12 [Compound 29a]", 62.5),
    ("CCc1c(F)ccc2cc(O)cc(-c3ncc4c(N5CCC[C@]6(CCO6)C5)nc(OC[C@@]56CCCN5C[C@H](F)C6)nc4c3F)c12 [Compound 68]", 136),
]

[1] CCc1c(F)ccc2cc(O)cc(-c3ncc4c(N5CCCC6(CCO6)C5)nc(OCC5(CN6CCOCC6)CC5)nc4c3F)c12 (stereo not drawn) [Compound 2a]
[2] CCc1c(F)ccc2cc(O)cc(-c3ncc4c(N5CCC[C@@]6(CCO6)C5)nc(OC[C@@]56CCCN5C[C@H](F)C6)nc4c3F)c12 [Compound 67]
[3] CCc1c(F)ccc2cc(O)cc(-c3ncc4c(N5CCC[C@]6(CCO6)C5)nc(OCC5(CN6CCCC6)CC5)nc4c3F)c12 [Compound 10a]
[4] CCc1c(F)ccc2cc(O)cc(-c3ncc4c(N5CCCC6(CCO6)C5)nc(OCC5(CN(C)C)CC5)nc4c3F)c12 (stereo not drawn) [Compound 73]
Request: Exam item: list the entries in increasing order of CLint scaled at 1 μM. Kindly provide the labels arranged according to the requested ordering.
Response: 4, 3, 2, 1

====

# IC50 per entry
# experimentalSystem: His-tagged Human KRAS^G12D (Homo sapiens (Human), UniProt P01116, G12D)
# runDescription: HTRF KRAS G12D GTP binding assay
# protocolConditions: displacement of GTP-Red tracer

Example entries and their recorded answers appear below.
# molecule, experimentalSystem, result
rows = [
    ("CN(C)CC1(COc2nc(N3CCC[C@]4(CCO4)C3)c3cnc(-c4cc(O)ccc4-c4cccs4)c(F)c3n2)CC1 [Compound 25a]", "His-tagged Human KRAS^G12D (Homo sapiens (Human), UniProt P01116, G12D)", "639 nM"),
    ("CCc1c(F)ccc2cc(O)cc(-c3ncc4c(N5CCC6(CCO6)C5)nc(OC[C@@]56CCCN5C[C@H](F)C6)nc4c3F)c12 (stereo partly drawn) [Compound 62]", "His-tagged Human KRAS^G12D (Homo sapiens (Human), UniProt P01116, G12D)", "> 1000 nM"),
]

Request: Return IC50 (reported value) for this molecule: CCc1c(F)ccc2cc(O)cc(-c3ncc4c(N5C6CCC5CC6)nc(OC[C@@]56CCCN5C[C@H](F)C6)nc4c3F)c12 [Compound 15]
Response: > 1000 nM

====

# Tested on: phosphorylation of p-ERK1/2 in NCI-H358
# runDescription: Cellular phospho-ERK inhibition, NCI-H358
# Type: cell-based
# protocolConditions: Homo sapiens; NCI-H358, 4 hours
outcomeMeasure: IC50 (nM)
Answer in nM, number only, no unit symbol.

Request: Return IC50 (reported value) for this molecule: CCc1c(F)ccc2cc(O)cc(-c3ncc4c(N5CCCC6(CCO6)C5)nc(OC[C@@]56CCCN5C[C@H](F)C6)nc4c3F)c12 (stereo partly shown) [Compound 25]
Response: 83.7

====

# experimentalSystem: His-tagged Human KRAS^G12D (Homo sapiens (Human), UniProt P01116, G12D)
# runDescription: HTRF KRAS G12D GTP binding assay
# protocolConditions: displacement of GTP-Red tracer
# Protocol: KRAS^G12D was used in this assay. The ability of a test compound to bind to KRAS^G12D was measured by using an HTRF KRAS^G12D GTP Binding Kit (Cisbio, 63ADK000CB27PEG). […] 5 μL of compound solution was added to each well after serial dilution, followed by addition of 5 μL of GDP (50 nM) solution. […] The HTRF signal was measured with a VICTOR Nivo multimode plate reader according to the manufacturer's instructions. The percent inhibition was calculated using the following formula: […]
# IC50 per entry

# molecule, result
data = [
    ("CCc1c(F)ccc2cc(O)cc(-c3ncc4c(N5CCN(C(C)=O)[C@H](C)C5)nc(OC[C@@]56CCCN5C[C@H](F)C6)nc4c3F)c12", "> 10000 nM"),
    ("CCc1c(F)ccc2cc(O)cc(-c3ncc4c(N5C[C@@H]6C[C@H]5CO6)nc(OC[C@@]56CCCN5C[C@H](F)C6)nc4c3F)c12", "> 1000 nM"),
]

Here's the next entry for you.
Request: Return IC50 (reported value) for this molecule: CCc1c(F)ccc2cc(O)cc(-c3ncc4c(N5CCC[C@]6(CCO6)C5)nc(OCC(C)(C)CN(C)C)nc4c3F)c12 [Compound 26a]
Response: 13.3 nM
